# Measurement Description: Cell Viability - LYMP2-009 (AID 968);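 note: cells exposed to compound for 24 h at 37 °C; nearly all actives have a fitted effect of over 55% in size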
# Assay Conditions: LYMP2-009 lymphoblastoid cell viability; series mostly up to 92.2 µM
# Text: NIH Chemical Genomics Center [NCGC] NIH Molecular Libraries Screening Centers Network [MLSCN] National Institutes of Environmental Health Sciences [NIEHS] National Toxicology Program [NTP] We have developed a 1536-well cell-based assay for quantitative high throughput screening (qHTS) against a number of cell lines to determine in vitro cytotoxicity of small molecules. […] 8. Detection; Luminescence; Viewlux plate reader […]
Inconclusive results are not listed. Activity calls are given as the source filed them. Calls come from the whole dose curve; as a rule, active = well fitted cell-killing curve with a large enough effect; inconclusive = small, poorly fitted or top-dose-only effect; inactive = flat fitted curve, though single readings scatter.
The reply should be one of these categories: True (active), False (inactive)

Known results for compounds:
> print(dat)
                                   compound  category
1                   C=CC(=O)OCCOCCOC(=O)C=C      True
2  C/C=C1\C(=O)C[C@H]2[C@@H]3CCC4=CC(=O)CC[C@]4(C)[C@H]3CC[C@]12C     False
3  CCC(C)Nc1ccc(NC(C)CC)cc1 (stereo unspecified)      True
4      c1ccc2c(c1)ccc1cc3c(ccc4ccccc43)cc12     False
5  CN(C)c1ccc(C2(c3ccc(N(C)C)cc3)OC(=O)c3cc(N(C)C)ccc32)cc1     False

Moving on to another compound below.
Dear colleague, could you share the recorded outcome for O=C=Nc1ccc(Cc2ccc(N=C=O)cc2)cc1 when you have a moment? False
